- TARGET: M2 receptor (Rattus norvegicus, UniProt P10980)
- Construct: from tissue; host or cells: rat heart, 40,000 g membrane fraction
- Sequence (P10980 whole entry): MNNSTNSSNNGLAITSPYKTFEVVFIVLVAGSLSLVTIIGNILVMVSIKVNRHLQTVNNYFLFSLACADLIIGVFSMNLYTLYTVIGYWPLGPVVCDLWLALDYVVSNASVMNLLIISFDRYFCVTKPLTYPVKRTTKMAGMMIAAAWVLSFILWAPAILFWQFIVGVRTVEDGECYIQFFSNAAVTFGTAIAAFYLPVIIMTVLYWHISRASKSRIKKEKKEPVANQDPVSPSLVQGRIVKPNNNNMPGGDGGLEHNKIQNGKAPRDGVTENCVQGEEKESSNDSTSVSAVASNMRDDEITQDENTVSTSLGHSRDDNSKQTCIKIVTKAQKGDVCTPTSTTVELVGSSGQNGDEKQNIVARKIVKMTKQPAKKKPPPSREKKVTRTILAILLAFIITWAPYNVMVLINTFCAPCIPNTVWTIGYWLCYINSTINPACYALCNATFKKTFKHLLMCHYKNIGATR
- METHOD DESCRIPTION: M2 receptor binding ((3H)N-methyl scopolamine, heart)
- DETAILS: (3H)N-methyl scopolamine, rat heart, 22° C., 90 minutes, pH 7.4
pIC50: −log10 of the molar value.
READOUT KIND: pIC50

C(=C1\CN2CCC1CC2)/c1cccc(Oc2ccccc2)c1 [Compound 1b]	5.36
C[N+](C)(C)CC#CCOC(=O)Nc1cccc(Cl)c1 [McN-A-343, reference compound]	< 5.00
CC1OC2(CS1)CN1CCC2CC1 (stereo not shown) [AF102B, reference compound]	< 5.00

Let us examine a further case.
Exercise: Write pIC50 of C(=C1/CN2CCC1CC2)/c1cccc(Oc2ccccc2)c1 [Compound 1a] ; system used: M2 receptor (Rattus norvegicus, UniProt P10980)
Key: < 5.00
